- Settings: 333.2 K; Liquid; Transpiration method
Metric: vapor or sublimation pressure (kPa)

# Structure As Smiles, vapor or sublimation pressure (kPa)
data = [
    ("Fc1ccc(-n2ccnc2)cc1", 0.00563),
]

1: COc1ccccc1-n1ccnc1
2: Cc1ccccc1-n1ccnc1
3: Fc1ccccc1-n1ccnc1
[in] Order each entry by recorded vapor or sublimation pressure, climbing from the minimum. # respond with the labels, arranged in the requested order
[out] 1, 2, 3

* * *

- Settings: 353.1 K; Liquid; Transpiration method
Metric: vapor or sublimation pressure (kPa)

# Structure As Smiles, Readout Value
data = [
    ("Cc1ccccc1-n1ccnc1", 0.02295),
    ("c1ccc(-n2ccnc2)cc1", 0.03567),
]

a: Fc1ccccc1-n1ccnc1
b: Fc1ccc(-n2ccnc2)cc1
[in] Please choose the item with the lower vapor or sublimation pressure value from this pair: a and b # answer = label of selected item
[out] b
